Quick reference for CC50 at 96 h among some compounds
experiment: Cytotoxicity in human Huh7.5 cells assessed as reduction in cell viability incubated for 96 hrs by MTT assay; format: cell-based
# unit: µM | format: bare number

These recorded examples may help you get a feel for the data.
1) CN(C)CCN(C)c1ccc(C#N)c(CN2CCN(c3ccc(Cl)cc3[N+](=O)[O-])CC2)c1: 12.5
2) CN(C)CCN(C)c1ccc(C#N)c(CN2CCN(c3ccc(C#N)cc3)CC2)c1: 9.05
3) Cc1ccc(NCc2cc(N3CCN(C)CC3)ccc2C#N)cc1: 37.4
4) Cc1cc(Cl)ccc1N1CCN(Cc2cc(N(C)CCN(C)C)ccc2C#N)CC1: 10.1
5) CN(C)CCN(C)c1ccc(C#N)cc1CN1CCN(c2ccc(Cl)cc2)CC1: 14.6

Exercise: Requested field: CC50 at 96 h. Item: CN(C)CCN(C)c1ccc(C#N)c(CN2CCN(c3ccc(Cl)cc3Cl)CC2)c1
Solution: 9.85

Exercise: Moving on to the next compound: CN1CCN(c2ccc(C#N)c(CNc3ccc(Cl)cc3)c2)CC1
Solution: 18.3

---

experiment: Toxicity in Kunming mouse at 250 to 1000 mg/kg dosed via single oral gavage and measured on day 7 post treatment; assay type: organism-based; details: in vivo
measured.metric: MTD at 7 day

Exercise: Requested field: MTD at 7 day. Item: CN(C)CCN(C)c1ccc(C#N)c(CN2CCN(c3ccc(Cl)cc3)CC2)c1
Solution: > 1000 mg/kg

---

test: Drug level in Sprague-Dawley rat at 15 mg/kg, po measured after 24 hrs post dose by LC-MS/MS analysis; format: ADME, organism-based; conditions: in vivo, read-out: Drug uptake
measured.metric: concentration at 24 h (ng/mL)
# unit: ng/mL | format: bare number

Exercise: Requested field: concentration at 24 h. Item: CN(C)CCN(C)c1ccc(C#N)c(CN2CCN(c3ccc(Cl)cc3)CC2)c1
Solution: 119

---

assay: Half life in Sprague-Dawley rat at 15 mg/kg, po measured after 0.08 to 72 hrs post dose by LC-MS/MS analysis; format: ADME, organism-based; settings: in vivo
measured.metric: half-life (h)
# unit: h | format: bare number

Exercise: Requested field: half-life. Item: CN(C)CCN(C)c1ccc(C#N)c(CN2CCN(c3ccc(Cl)cc3)CC2)c1
Solution: 12.8

---

test system: Hepatitis C virus; test: Antiviral activity against HCV with glycoprotein E1 F291V mutant infected in human Huh7.5 cells assessed as reduction in viral RNA levels incubated for 72 hrs by qRT-PCR analysis; format: functional, organism-based, Hepacivirus hominis
measured.metric: EC50 (nM)
# unit: nM | format: bare number

Exercise: Requested field: EC50. Item: CN(C)CCN(C)c1ccc(C#N)c(CN2CCN(c3ccc(Cl)cc3)CC2)c1
Solution: 120

---

experiment: Cytotoxicity in human Huh7.5 cells assessed as reduction in cell viability incubated for 96 hrs by MTT assay; assay type: cell-based
measured.metric: CC50 at 96 h (µM)
# unit: µM | format: bare number

1. CCC(=O)N(C)CCN(C)c1ccc(C#N)c(CN2CCN(c3ccc(Cl)cc3)CC2)c1: 40

Query compound follows.
Exercise: Requested field: CC50 at 96 h. Item: Cc1ccc(NCc2cc(N3CCCCC3)ccc2C#N)cc1
Solution: 11.4

---

assay: Cmax in Sprague-Dawley rat at 15 mg/kg, po measured after 0.08 to 72 hrs post dose by LC-MS/MS analysis; type: ADME, organism-based; set-up: dose 15 mg/kg, route oral; conditions: in vivo
measured.metric: Cmax (ng/mL)
# unit: ng/mL | format: bare number

Exercise: Requested field: Cmax. Item: CN(C)CCN(C)c1ccc(C#N)c(CN2CCN(c3ccc(Cl)cc3)CC2)c1
Solution: 501
